assayed-system: T1, Fc-CLEC1 labelled with Alexa Fluor 488 (human, Alexa Fluor 488 label (sites not given))
T1 construct: also called Fc-CLEC1-A488; Alexa488-Fc-Clec-1
T1 chain: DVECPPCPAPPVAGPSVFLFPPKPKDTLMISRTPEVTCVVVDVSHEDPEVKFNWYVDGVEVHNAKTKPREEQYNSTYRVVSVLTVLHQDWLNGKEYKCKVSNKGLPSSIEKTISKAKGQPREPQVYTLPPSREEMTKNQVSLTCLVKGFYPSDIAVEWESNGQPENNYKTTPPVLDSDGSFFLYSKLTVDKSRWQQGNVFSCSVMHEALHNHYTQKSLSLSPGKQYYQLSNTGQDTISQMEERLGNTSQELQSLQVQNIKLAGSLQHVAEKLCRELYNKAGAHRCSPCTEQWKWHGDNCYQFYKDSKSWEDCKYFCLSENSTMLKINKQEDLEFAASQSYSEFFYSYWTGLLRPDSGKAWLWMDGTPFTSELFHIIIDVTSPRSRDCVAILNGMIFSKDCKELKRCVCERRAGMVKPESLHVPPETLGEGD
protocol-description: FACS competition: blocks Fc-CLEC1-A488 (10 nM) binding to CLEC-1 ligand on UV-treated PBMC; read-out Mean
recorded-metric: IC50 (µg/mL)
One number for each entry, in µg/mL.

Req: Recorded IC50 for murine anti-hCLEC1 antibody 5D1-A5 (antibody, V domains shown, Mouse hybridoma antibody) VH: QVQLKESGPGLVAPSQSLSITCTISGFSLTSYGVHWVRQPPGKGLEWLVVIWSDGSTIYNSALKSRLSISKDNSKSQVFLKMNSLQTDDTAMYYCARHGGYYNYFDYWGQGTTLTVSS VL: DIQMNQSPSSLSASLGDTITITCHASQNINVWLSWYQQKPGNIPKLLIYKASNLHTGVPSRFSGSGSGTGFTLTISSLQPEDIATYYCQQGQSYWTFGGGTKLEIK , please?
Resp: 3.8
